assay: Half life at pH 5.9; type: ADME; conditions: buffer
Quantity Name: half-life (min)
Reply numerically in min, unit not repeated.

Which half-life value is on record for CC(=O)C(N)C(=O)O (stereo unspecified) ?
8.57

---

test: Half life at pH 7.8; type: ADME; conditions: buffer
Quantity Name: half-life

Dear colleague, I am looking for the recorded half-life of the following compound: NC(C(=O)O)C(=O)COP(=O)(O)O (stereo unspecified)
10 min
